src = paper PMC3264873

# TESTED_SYSTEM: UniProt:Q9Y6L6
# Sequence (Q9Y6L6 1-691): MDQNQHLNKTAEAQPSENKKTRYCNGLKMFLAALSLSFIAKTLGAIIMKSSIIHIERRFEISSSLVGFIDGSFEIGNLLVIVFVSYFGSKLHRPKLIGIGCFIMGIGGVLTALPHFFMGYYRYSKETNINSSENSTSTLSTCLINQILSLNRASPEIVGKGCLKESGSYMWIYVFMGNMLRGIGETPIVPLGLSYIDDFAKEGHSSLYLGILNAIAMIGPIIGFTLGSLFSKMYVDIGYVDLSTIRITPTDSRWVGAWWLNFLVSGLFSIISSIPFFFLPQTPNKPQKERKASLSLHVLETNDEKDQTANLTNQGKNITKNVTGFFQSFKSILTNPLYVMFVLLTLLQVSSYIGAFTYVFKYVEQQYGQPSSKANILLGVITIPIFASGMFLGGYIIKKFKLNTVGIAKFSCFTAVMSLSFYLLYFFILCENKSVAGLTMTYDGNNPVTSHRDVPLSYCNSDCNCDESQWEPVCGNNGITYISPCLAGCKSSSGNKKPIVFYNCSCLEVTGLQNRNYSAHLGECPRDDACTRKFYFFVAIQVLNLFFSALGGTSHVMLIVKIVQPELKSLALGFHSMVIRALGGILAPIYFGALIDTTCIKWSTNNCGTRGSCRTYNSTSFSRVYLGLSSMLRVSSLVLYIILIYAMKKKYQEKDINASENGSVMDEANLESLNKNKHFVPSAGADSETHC
# EXPERIMENTAL_PROTOCOL: Calculation of R-values
# EXPERIMENTAL_SETUP: mean of the eight R-values A–H
OBSERVABLE: Average (mean) R-value

Example entries and their recorded answers appear below.
**Q:** Return the recorded Average (mean) R-value value; entry: `COC(=O)N[C@H](C(=O)N[C@@H](Cc1ccccc1)[C@@H](O)CN(Cc1ccc(-c2ccccn2)cc1)NC(=O)[C@@H](NC(=O)OC)C(C)(C)C)C(C)(C)C`
**A:** 4.02

**Q:** Return the recorded Average (mean) R-value value; entry: `CC(C)CN(C[C@@H](O)[C@H](Cc1ccccc1)NC(=O)O[C@H]1CCOC1)S(=O)(=O)c1ccc(N)cc1`
**A:** 1.49

I = Cc1ccc(C)c(OCCCC(C)(C)C(=O)O)c1
II = Cc1cccc(C)c1OCC(=O)N[C@@H](Cc1ccccc1)[C@@H](O)C[C@H](Cc1ccccc1)NC(=O)[C@H](C(C)C)N1CCCNC1=O
**Q:** Identify the entry with the smaller Average (mean) R-value: I or II . State your choice using its label.
**A:** I
(I: 1.11, II: 2.91)

====

# TESTED_SYSTEM: OATP1B1 (Homo sapiens)
# EXPERIMENTAL_PROTOCOL: Screening for inhibition of OATP1B1-mediated estradiol-17β-glucuronide uptake
# EXPERIMENTAL_SETUP: human, pH 7.4, Inhibition of E17βG uptake, 100 μM test compound (data not shown)
OBSERVABLE: inhibition at 5 min, 100 µM (%)
Unit % implied. Number only.

**Q:** Return the recorded inhibition at 5 min, 100 µM value; entry: CC1(C)S[C@@H]2[C@H](NC(=O)Cc3ccccc3)C(=O)N2[C@H]1C(=O)O [Penicillin G]
**A:** 32

====

# TESTED_SYSTEM: OATP1B1 (Homo sapiens, UniProt Q9Y6L6)
# EXPERIMENTAL_PROTOCOL: Screening for inhibition of OATP1B1-mediated estradiol-17β-glucuronide uptake
# EXPERIMENTAL_SETUP: human, pH 7.4
Starred links: 1 amine or outer side, 2 acyl side, 3 side chain; linkers in the order of their positions; H or OH if unused. Positions of bridges follow the written chain, without caps; N, C: chain ends. Non-standard residues stand in square brackets, D forms with d. Residues, ends and D or L forms follow the SMILES beside them. Trp(2-yl) = O=C([C@H](Cc1c([*:3])[nH]c2ccccc12)N[*:1])[*:2]; Leu(4R-OH,5-OH) = C[C@](O)(CO)C[C@H](N)C(=O)O; cisHyp = O=C(O)[C@@H]1C[C@H](O)CN1
OBSERVABLE: inhibition at 5 min, 100 µM (%)
Unit % implied. Number only.

**Q:** Return the recorded inhibition at 5 min, 100 µM value; entry: C[C@@H]1NC(=O)[C@H](C[C@@](C)(O)CO)NC(=O)[C@@H]2Cc3c([nH]c4ccccc34)SC[C@H](NC(=O)[C@@H]([C@H](C)O)NC1=O)C(=O)N1C[C@@H](O)C[C@H]1C(=O)N[C@@H](C)C(=O)N2 [Phalloidin] (cyclo(A[dT]C[cisHyp]A[Trp(2-yl)][Leu(4R-OH,5-OH)]); thioether 3-6)
**A:** 49
